target or system: T1, hPRLR.mFc (soluble dimeric human PRLR) (human)
T1 construct: dimeric PRLR construct
T1 chain: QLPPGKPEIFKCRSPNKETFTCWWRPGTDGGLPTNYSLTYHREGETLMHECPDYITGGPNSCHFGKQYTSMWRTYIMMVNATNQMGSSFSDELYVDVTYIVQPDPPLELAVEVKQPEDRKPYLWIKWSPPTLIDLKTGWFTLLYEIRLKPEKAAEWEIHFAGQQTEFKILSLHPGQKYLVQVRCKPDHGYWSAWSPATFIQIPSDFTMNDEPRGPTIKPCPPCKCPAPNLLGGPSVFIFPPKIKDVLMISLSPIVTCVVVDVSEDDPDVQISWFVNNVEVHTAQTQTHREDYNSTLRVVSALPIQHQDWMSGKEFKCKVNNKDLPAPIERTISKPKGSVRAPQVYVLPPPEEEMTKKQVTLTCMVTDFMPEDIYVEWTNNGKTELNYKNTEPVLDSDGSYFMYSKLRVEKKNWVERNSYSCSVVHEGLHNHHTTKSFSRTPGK
test: SPR Biacore, 25 C, mAb capture
T½ values, listed per item
Number only, in h; omit the unit.

binder: H1H6793P (antibody, human IgG1, V domains shown, Human IgG1 Fc (H1H)) VH: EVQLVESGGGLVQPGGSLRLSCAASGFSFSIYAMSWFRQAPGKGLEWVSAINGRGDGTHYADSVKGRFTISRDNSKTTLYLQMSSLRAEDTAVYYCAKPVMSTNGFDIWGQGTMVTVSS VL: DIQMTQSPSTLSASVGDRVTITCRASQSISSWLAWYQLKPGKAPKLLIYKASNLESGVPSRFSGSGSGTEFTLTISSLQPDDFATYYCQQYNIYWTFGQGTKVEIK
T½, h: 2.55

Please fill in: T½ reported for H1H6967N (antibody, human IgG1, V domains shown, Tested with human IgG1 Fc (H1H); also called H2M6967N) VH: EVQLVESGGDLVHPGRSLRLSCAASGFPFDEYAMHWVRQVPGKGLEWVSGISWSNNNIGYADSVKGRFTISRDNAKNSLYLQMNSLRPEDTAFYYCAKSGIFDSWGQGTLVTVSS VL: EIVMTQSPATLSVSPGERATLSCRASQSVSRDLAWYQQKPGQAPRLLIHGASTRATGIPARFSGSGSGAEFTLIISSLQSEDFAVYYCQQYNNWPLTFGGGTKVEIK = 4.32

// field: T½; key: H1H6958N2 (antibody, human IgG1, V domains shown, Tested with human IgG1 Fc (H1H); also called H2M6958N2) VH: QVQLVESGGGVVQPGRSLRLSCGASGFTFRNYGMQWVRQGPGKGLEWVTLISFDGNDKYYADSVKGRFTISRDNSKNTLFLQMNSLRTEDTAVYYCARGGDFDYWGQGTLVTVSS VL: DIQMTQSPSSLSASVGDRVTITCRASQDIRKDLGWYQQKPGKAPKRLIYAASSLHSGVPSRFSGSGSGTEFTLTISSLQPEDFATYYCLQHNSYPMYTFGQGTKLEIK ; value = 5.26

Just so you know, measured T½ for H1H6785P (antibody, human IgG1, V domains shown, Human IgG1 Fc (H1H)) VH: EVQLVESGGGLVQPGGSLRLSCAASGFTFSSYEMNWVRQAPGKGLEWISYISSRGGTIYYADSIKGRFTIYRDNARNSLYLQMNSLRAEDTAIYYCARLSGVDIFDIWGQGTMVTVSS VL: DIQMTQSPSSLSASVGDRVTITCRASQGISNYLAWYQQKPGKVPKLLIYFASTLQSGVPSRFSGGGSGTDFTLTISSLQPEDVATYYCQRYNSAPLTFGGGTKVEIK came out at 3.17

Value of T½ reported for the binder H1H6782P (antibody, human IgG1, V domains shown, Human IgG1 Fc (H1H)) VH: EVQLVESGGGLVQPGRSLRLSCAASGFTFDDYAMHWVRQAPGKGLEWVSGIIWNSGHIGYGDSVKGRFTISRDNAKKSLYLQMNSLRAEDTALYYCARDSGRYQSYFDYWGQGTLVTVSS VL: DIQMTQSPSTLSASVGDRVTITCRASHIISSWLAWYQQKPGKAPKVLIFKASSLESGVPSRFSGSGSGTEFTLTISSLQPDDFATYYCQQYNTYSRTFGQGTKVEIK is 2.7
